Task for the reader: assign each of the following variants its reported FACS-Seq fitted mean (log10).
B1: library; a variant is named by its letters at N, in order (parent)
chain: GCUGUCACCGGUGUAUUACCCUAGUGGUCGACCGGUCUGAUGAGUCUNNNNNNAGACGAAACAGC

Variants of: B1
Test: FACS-Seq fitted mean relative fluorescence mCherry/BFP with ligand (log10 relative fluorescence); ligand: hypoxanthine (xanthine aptamer); ligand concentration (+) FACS-Seq: 5 mM; higher = higher reporter protein expression
Conditions: HEK293T, ligand present: yes
Give bare numbers.

Some entries whose results are on file:
| POLYMER SEQUENCE | ASSAY VALUE |
| --- | --- |
| GCUGUCACCGGUGUAUUACCCUAGUGGUCGACCGGUCUGAUGAGUCUGAUGAAAGACGAAACAGC [GAUGAA] | 0.52 |
| GCUGUCACCGGUGUAUUACCCUAGUGGUCGACCGGUCUGAUGAGUCUCUUGGAAGACGAAACAGC [CUUGGA] | 0.705 |
| GCUGUCACCGGUGUAUUACCCUAGUGGUCGACCGGUCUGAUGAGUCUAACGCCAGACGAAACAGC [AACGCC] | 0.1 |

// for each variant in input: emit FACS-Seq fitted mean (log10)
1. GCUGUCACCGGUGUAUUACCCUAGUGGUCGACCGGUCUGAUGAGUCUAGGAUAAGACGAAACAGC [AGGAUA]
2. GCUGUCACCGGUGUAUUACCCUAGUGGUCGACCGGUCUGAUGAGUCUAAUGCAAGACGAAACAGC [AAUGCA]
3. GCUGUCACCGGUGUAUUACCCUAGUGGUCGACCGGUCUGAUGAGUCUGUUGAGAGACGAAACAGC [GUUGAG]
4. GCUGUCACCGGUGUAUUACCCUAGUGGUCGACCGGUCUGAUGAGUCUAAAGGAAGACGAAACAGC [AAAGGA]
5. GCUGUCACCGGUGUAUUACCCUAGUGGUCGACCGGUCUGAUGAGUCUCAGUGUAGACGAAACAGC [CAGUGU]
6. GCUGUCACCGGUGUAUUACCCUAGUGGUCGACCGGUCUGAUGAGUCUUCUAAUAGACGAAACAGC [UCUAAU]
7. GCUGUCACCGGUGUAUUACCCUAGUGGUCGACCGGUCUGAUGAGUCUGACACGAGACGAAACAGC [GACACG]
8. GCUGUCACCGGUGUAUUACCCUAGUGGUCGACCGGUCUGAUGAGUCUGACGCUAGACGAAACAGC [GACGCU]

Return:
[-0.0798, 0.563, 0.659, -0.105, 0.795, 0.511, 0.695, 0.508]

Here are 4 variants. What values of FACS-Seq fitted mean (log10) were reported for them?
1. GCUGUCACCGGUGUAUUACCCUAGUGGUCGACCGGUCUGAUGAGUCUGUAUGUAGACGAAACAGC [GUAUGU]
2. GCUGUCACCGGUGUAUUACCCUAGUGGUCGACCGGUCUGAUGAGUCUACACGGAGACGAAACAGC [ACACGG]
3. GCUGUCACCGGUGUAUUACCCUAGUGGUCGACCGGUCUGAUGAGUCUAACUAGAGACGAAACAGC [AACUAG]
4. GCUGUCACCGGUGUAUUACCCUAGUGGUCGACCGGUCUGAUGAGUCUAGCCGGAGACGAAACAGC [AGCCGG]

Return:
1. 0.398
2. 0.465
3. 0.521
4. 0.305

Hi there! I need FACS-Seq fitted mean (log10) for each item below, if you can.
1. GCUGUCACCGGUGUAUUACCCUAGUGGUCGACCGGUCUGAUGAGUCUACAUCGAGACGAAACAGC [ACAUCG]
2. GCUGUCACCGGUGUAUUACCCUAGUGGUCGACCGGUCUGAUGAGUCUAACUUGAGACGAAACAGC [AACUUG]
3. GCUGUCACCGGUGUAUUACCCUAGUGGUCGACCGGUCUGAUGAGUCUUUUGAGAGACGAAACAGC [UUUGAG]
4. GCUGUCACCGGUGUAUUACCCUAGUGGUCGACCGGUCUGAUGAGUCUUUGCCGAGACGAAACAGC [UUGCCG]

Return:
[0.584, 0.726, 0.502, 0.358]

src = the supplement of paper PMC6757056
